# PROTOCOL_SUMMARY: HKR of (±)-propylene oxide under standard neat 'Jacobsen conditions' (NMR conversion, chiral HPLC ee)
# CONDITION: neat propylene oxide, 0.55 equiv. H2O, 0.25 mol % catalyst, 3 h reaction time; + = (S), − = (R)
READOUT: % ee of the 1,2-propanediol product, as observed by chiral HPLC (lower number)

>>> measurement("CO[C@H]1[C@@H]2OC(C)(C)O[C@@H]2COC1(CN=Cc1cccc(C(C)(C)C)c1O)N=Cc1cccc(C(C)(C)C)c1O (stereo partly drawn)")
"−40 % ee"
>>> measurement("CC(C)(C)c1cc(C=NC[C@H](Cc2ccc3ccccc3c2)N=Cc2cc(C(C)(C)C)cc(C(C)(C)C)c2O)c(O)c(C(C)(C)C)c1")
"+66 % ee"
>>> measurement("CC(C)(C)c1cccc(C=NC[C@H](Cc2cccc3ccccc23)N=Cc2cccc(C(C)(C)C)c2O)c1O")
"+59 % ee"
>>> measurement("Oc1c(I)cc(I)cc1C=NC[C@H](Cc1cccc2ccccc12)N=Cc1cc(I)cc(I)c1O")
"+14 % ee"
>>> measurement("Oc1c(I)cc(I)cc1C=NC[C@@H](N=Cc1cc(I)cc(I)c1O)c1ccccc1")
"−41 % ee"
>>> measurement("CC(C)(C)c1cc(C=NC[C@H](Cc2cccc3ccccc23)N=Cc2cc(C(C)(C)C)cc(C(C)(C)C)c2O)c(O)c(C(C)(C)C)c1")
"+76 % ee"
>>> measurement("CC(C)(C)c1cc(C=NC[C@H](Cc2ccccc2)N=Cc2cc(C(C)(C)C)cc(C(C)(C)C)c2O)c(O)c(C(C)(C)C)c1")
"+55 % ee"
>>> measurement("CC(C)(C)c1cccc(C=NC[C@H](Cc2ccc3ccccc3c2)N=Cc2cccc(C(C)(C)C)c2O)c1O")
"+68 % ee"
>>> measurement("Oc1cc(OCc2ccccc2)ccc1C=NC[C@H](Cc1cccc2ccccc12)N=Cc1ccc(OCc2ccccc2)cc1O")
"+51 % ee"
